Please provide measured inhibition for the entries that follow.
Target: UniProt Q05469
Assay: Inhibition of recombinant human hormone sensitive lipase (HSL)
Design: concentration or dose not given beside the values
Conditions: concentration not given here
Numbers only, in %.

| MOLECULE | TARGET_SYSTEM | READOUT_UNITS | inhibition |
| --- | --- | --- | --- |
| CCOC(=O)NN1CCc2ccccc2C1 | UniProt Q05469 | % | 9 |
| CC1c2ccccc2CCN1NC(=O)Oc1ccc(Cl)cc1 (centres undefined) | UniProt Q05469 | % | 91 |
| CC(C)(C)CC(=O)Nc1ccc(OC(=O)NN2CCOCC2)cc1 | UniProt Q05469 | % | 99 |
| O=C(NN1CCc2ccccc2C1)Oc1c(Cl)cccc1Cl | UniProt Q05469 | % | 3 |
| CCOC(=O)Cc1ccc(OC(=O)NN2CCOCC2)cc1 | UniProt Q05469 | % | 99 |
| COC(=O)c1ccc(OC(=O)NN2CCc3ccccc3C2)cc1 | UniProt Q05469 | % | 57 |
| O=C(NN1CCc2ccccc2C1)Oc1ccc(Cc2ccccc2)cc1 | UniProt Q05469 | % | 97 |
| CC(C)(C)OC(=O)Nc1ccc(OC(=O)NN2CCc3ccccc3C2)cc1 | UniProt Q05469 | % | 98 |
| O=C(NN1CCc2ccccc2C1)OCc1ccccc1 | UniProt Q05469 | % | 4 |
| O=C(NN1CCOCC1)Oc1ccc(NC(=O)C2CCCCC2)cc1 | UniProt Q05469 | % | 99 |

Can you give me inhibition for all of these, one by one?
1. CC(=O)Nc1ccc(OC(=O)NN2CCOCC2)cc1
2. CCCC(=O)Nc1ccc(OC(=O)NN2CCOCC2)cc1
3. CN(C(=O)Oc1ccc(Cl)cc1)N1CCc2ccccc2C1
4. CC(=O)Nc1ccc(OC(=O)NN2CCc3ccccc3C2)cc1

Response:
1. 20
2. 84
3. 2
4. 7

----------
Provide the reported log10 IC50 of each item.
Biological target: Hormone-sensitive lipase (Homo sapiens)
Test: Inhibition of human recombinant hormone sensitive lipase.
For clarity, the numbers are log10 values of IC50 expressed in nM.

| MOLECULE | log10 IC50 |
| --- | --- |
| CCCC(=O)Nc1ccc(OC(=O)NN2CCOCC2)cc1 | 3.51 |
| CCOC(=O)Cc1ccc(OC(=O)NN2CCOCC2)cc1 | 2.14 |
| O=C(Cc1ccc(OC(=O)NN2CCOCC2)cc1)OCc1ccccc1 | 0.70 |
| O=C(NN1CCc2ccccc2C1)Oc1ccccc1 | 2.31 |
| CC1Cc2ccccc2CN1NC(=O)Oc1ccc(Cl)cc1 (configuration not stated) | 1.54 |
| COC(=O)Cc1ccc(OC(=O)NN2CCOCC2)cc1 | 2.85 |

With those in mind, consider the next molecule.
Query: # get_value(readout='log10 IC50', item= O=C(NN1CCCC1)Oc1ccc(Cl)cc1 )
Response: 1.38

----------
Assignment: determine reported IC50 for the given molecules.
Molecular target: Hormone-sensitive lipase (Homo sapiens, UniProt Q05469)
Sequence (Q05469 whole entry): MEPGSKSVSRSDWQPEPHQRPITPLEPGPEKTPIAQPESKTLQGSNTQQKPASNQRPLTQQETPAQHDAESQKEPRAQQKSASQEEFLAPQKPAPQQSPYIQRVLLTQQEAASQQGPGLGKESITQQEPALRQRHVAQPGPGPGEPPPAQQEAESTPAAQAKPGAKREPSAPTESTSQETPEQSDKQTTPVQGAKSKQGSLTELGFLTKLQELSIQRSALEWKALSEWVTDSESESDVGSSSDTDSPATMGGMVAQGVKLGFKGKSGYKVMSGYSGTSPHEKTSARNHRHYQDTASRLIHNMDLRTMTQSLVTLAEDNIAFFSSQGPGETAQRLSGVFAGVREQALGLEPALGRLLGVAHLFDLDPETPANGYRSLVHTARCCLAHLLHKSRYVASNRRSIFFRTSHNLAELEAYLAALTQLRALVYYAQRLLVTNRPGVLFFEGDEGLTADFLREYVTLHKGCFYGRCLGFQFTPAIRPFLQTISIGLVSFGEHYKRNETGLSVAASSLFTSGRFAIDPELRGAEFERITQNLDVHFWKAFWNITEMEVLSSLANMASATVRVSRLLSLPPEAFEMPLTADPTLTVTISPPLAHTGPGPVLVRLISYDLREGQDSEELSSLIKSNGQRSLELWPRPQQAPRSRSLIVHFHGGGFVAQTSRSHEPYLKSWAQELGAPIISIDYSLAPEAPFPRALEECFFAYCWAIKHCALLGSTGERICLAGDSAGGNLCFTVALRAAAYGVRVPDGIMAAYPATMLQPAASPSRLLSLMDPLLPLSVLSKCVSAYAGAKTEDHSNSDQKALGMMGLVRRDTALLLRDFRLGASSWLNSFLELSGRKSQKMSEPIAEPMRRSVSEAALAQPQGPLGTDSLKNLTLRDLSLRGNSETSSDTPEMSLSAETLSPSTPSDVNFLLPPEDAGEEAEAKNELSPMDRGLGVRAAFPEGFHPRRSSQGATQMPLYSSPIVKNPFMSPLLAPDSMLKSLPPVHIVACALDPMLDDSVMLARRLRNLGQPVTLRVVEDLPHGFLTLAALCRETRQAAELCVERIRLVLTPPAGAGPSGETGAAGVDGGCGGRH
Assay: Inhibition of human recombinant hormone sensitive lipase.
One number for each entry, in nM.

Some molecules with known IC50 results, for comparison:
| MOLECULE | TARGET_SYSTEM | READOUT_TYPE | READOUT_UNITS | EXPERIMENTAL_VALUE |
| --- | --- | --- | --- | --- |
| O=C(NN1CCc2ccccc2C1)Oc1ccc(Cc2ccccc2)cc1 | Hormone-sensitive lipase (Homo sapiens, UniProt Q05469) | IC50 | nM | 97 |
| O=C(NN1CCOCC1)Oc1ccc(Cl)cc1 | Hormone-sensitive lipase (Homo sapiens, UniProt Q05469) | IC50 | nM | 184 |

Go through the list and state IC50 for each entry.
1. CC(C)(C)C1CCC(C(=O)Nc2ccc(OC(=O)NN3CCOCC3)cc2)CC1 (configuration not stated)
2. CC(C)(C)CC(=O)Nc1ccc(OC(=O)NN2CCOCC2)cc1
3. CN1CCN(NC(=O)Oc2ccc(Cl)cc2)CC1
4. O=C(NN1CCOCC1)Oc1ccc(NC(=O)C2CCCCC2)cc1
5. CC1c2ccccc2CCN1NC(=O)Oc1ccc(Cl)cc1 (configuration not stated)

Response:
1. 1
2. 47
3. 515
4. 10
5. 32

----------
Target: Hormone-sensitive lipase (Homo sapiens)
Test: Inhibition of recombinant human hormone sensitive lipase (HSL)
Parameters: concentration or dose not given beside the values
Conditions: concentration not given here
READOUT_TYPE: inhibition (%)
Numbers only, in %.

Worked cases, inhibition given:
| COMPOUND | inhibition / % |
| --- | --- |
| CN1CCN(NC(=O)Oc2ccc(Cl)cc2)CC1 | 98 |
| CC1Cc2ccccc2CN1NC(=O)Oc1ccc(Cl)cc1 (stereo not drawn) | 99 |
| O=C(NN1CCOCC1)Oc1ccc(Cl)cc1 | 99 |
| COc1ccc(OC(=O)NN2CCc3ccccc3C2)cc1 | 97 |
| COc1ccccc1OC(=O)NN1CCc2ccccc2C1 | 76 |
| COC(=O)Cc1ccc(OC(=O)NN2CCOCC2)cc1 | 95 |
| O=C(NN1CCc2ccccc2C1)Oc1ccc(C(=O)c2ccccc2)cc1 | 21 |
| O=C(NN1CCc2ccccc2C1)Oc1ccc(Cl)cc1 | 98 |
| CC(C)(C)OC(=O)NN1CCc2ccccc2C1 | 8 |
| O=C(NN1CCCCC1)Oc1ccc(Cl)cc1 | 99 |

Report inhibition for each item below.
1. O=C(Cc1ccc(OC(=O)NN2CCOCC2)cc1)OCc1ccccc1
2. O=C(NN1CCCC1)Oc1ccc(Cl)cc1
3. CC(C)(C)C1CCC(C(=O)Nc2ccc(OC(=O)NN3CCOCC3)cc2)CC1 (stereo not drawn)

Response:
[100, 100, 100]

meta.source: ChEMBL document CHEMBL1137968
